# Tested on: GluA1 surface expression in cultured hippocampal neurons
# Assay method text: Surface labelling of AMPA receptor subunit GluA1 (immunocytochemistry)
# Assay type: cell-based, Sprague Dawley rats
# Recorded conditions: 10 nM; 15 min
Readout: GluA1 surface expression, hexamer study

Example substances with recorded GluA1 surface expression, hexamer study:
{"Substance": "LQKPES (SCHLPWASGL; listed as Homo sapiens) [leptin (125-130)]", "GluA1 surface expression, hexamer study": "98±5 % of control"}
{"Substance": "CSLPQT (listed as Mus musculus) [leptin (117-122)]", "GluA1 surface expression, hexamer study": "167±10 % of control"}

Input: Give GluA1 surface expression, hexamer study for GLQKPE (listed as Mus musculus) [leptin (124-129)]
Output: 89±6 % of control

Input: Give GluA1 surface expression, hexamer study for SCSLPQ (listed as Mus musculus) [leptin (116-121)]
Output: 146±9 % of control

###

# Test system: differentiated SH-SY5Y human neuronal cells
# Assay method text: MTT assay of mitochondrial activity (cell viability)
# Format: cell-based
# Recorded conditions: 10 nM; n=11
Readout: increase in mitochondrial activity compared with Aβ1-42 alone

Example substances with recorded increase in mitochondrial activity compared with Aβ1-42 alone:
{"Substance": "CSLPQT (listed as Mus musculus) [leptin (117-122)]", "Meas value": "40.5±3.7%"}
{"Substance": "GLQKPE (listed as Mus musculus) [leptin (124-129)]", "Meas value": "did not"}
{"Substance": "SCSLPQ (listed as Mus musculus) [leptin (116-121)]", "Meas value": "43.61±3.9%"}
{"Substance": "LQKPES (SCHLPWASGL; listed as Homo sapiens) [leptin (125-130)]", "Meas value": "did not"}

Input: Give increase in mitochondrial activity compared with Aβ1-42 alone for SCSLPQTSGLQKPES (listed as Mus musculus) [leptin (116-130)]
Output: 40.9 ± 5.8%
